B1: TBX5 (parent)
chain: YQNHKITQLKIENNPFAKGFRGSD

# Variants of: B1
# Assay Comment: protein stability index of a GFP-peptide fusion (GPS, HEK-293T) (PSI 1-6); higher = more stable;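 further: lentivirally expressed fusions sorted by FACS into six bins by GFP to DsRed ratio, PSI derived from sequencing read proportions per bin multiplied by bin number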
# Test Context: c terminus: a fixed tail appended
Give measured protein stability index for each item. Keep answers brief.
One number for each entry.

Solved entries:
Mutation String	protein stability index
A17W	1.98
A17F	1.95
K5E	2.98
N3I	1.97

*Q* // returns reported protein stability index for input N14E
*A* 2.95
